# Tested on: A2780
# TEST_METHOD_NOTES: Compound was evaluated for cytotoxicity against A2780 cis cell lines.
# Assay type: functional, cell-based
# APPLIED_CONDITIONS: Homo sapiens
The following compounds are shown together with reported IC50 values.

Sample answers from the record:
INSERT INTO assay_data (compound_smiles, value) VALUES
  ('O=C(NCCN1CCOCC1)c1cn2c(ccc3sc4ccccc4c(=O)c32)n1', '7600 nM'),
  ('CCN(CC)CCCNC(=O)c1cn2c(ccc3sc4ccccc4c(=O)c32)n1', '480 nM');

### Prompt Which measured IC50 value corresponds to "O=C(NCCN1CCCCC1)c1cn2c(ccc3sc4ccccc4c(=O)c32)n1" ?
### Response 650 nM

### Prompt Next up: "O=C(c1cn2c(ccc3sc4ccccc4c(=O)c32)n1)N1CCN(CCO)CC1"
### Response 1800 nM

Every entry's value here was drawn from ChEMBL document CHEMBL1129744.
